experimental details: probe aCHRDL2 binding to arrayed compounds – biochemical, biotinylated probe, 635/667 nm fluorescence, primary screen (AID 1100)
condition notes: small-molecule microarray, higher = more signal
Threshold rule: composite z-score greater than or equal to 0.1 is Condition met; below that, Condition not met.

1. CC(C)(C)N1CC=CC23O[C@@H]4C=CCCOC(=O)C4[C@H]2C(=O)N(CCCCCCO)[C@@H]3C1=O (stereo not given in full)
Condition not met
2. COC(=O)[C@@]1(Cc2ccccc2)[C@H]2c3cc(C(=O)N(C)C)n(Cc4ccc(S(C)(=O)=O)cc4)c3C[C@H]2CN1C(=O)c1ccccc1
Condition met
3. CN(C)CCCCNC(=O)[C@H]1C[C@H]2C(=O)NCC(=O)N2[C@H]1c1ccc(O)cc1
Condition not met
4. COc1ccc([Si](C)(C)[C@@H]2[C@@H](CC(=O)N3CCC[C@H]3CO)O[C@]3(C(=O)N(Cc4ccc(N5CCOC5=O)cc4)c4ccccc43)[C@H]2C)cc1
Condition met

Input line: Quick check: does "CC(C)C(=C=CC[C@H](O)c1ccccc1OCCO)C[C@H](O)COCc1ccccc1" have composite z-score greater than or equal to 0.1?
Output line: Condition not met

###

experimental details: probe aLefty1 binding on compound microarray – biochemical, small-molecule microarray, 635/667 nm fluorescence, primary screen (AID 1153);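 also: score merges spot fluorescence with signal-to-noise ratio from the scanned slide images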
condition notes: higher = more signal
Each entry belongs to exactly one class, chosen by where its composite z-score falls: bin 1 = under -0.2, bin 2 = from -0.2 up to 0.3, bin 3 = 0.3 and over

Answered examples (9):
1) Cc1ccc(F)cc1S(=O)(=O)N[C@H]1CCN(Cc2ccc(OC(C)C)cc2)C1
bin 1
2) CC1CC/C=C\[C@H]2OC34C=CCN(C(C)(C)C)C(=O)[C@H]3N(CCCO)C(=O)[C@@H]4C2C(=O)O1 (stereo not given in full)
bin 2
3) COCCOC(=O)N1C(=O)[C@@]2(c3cc(C#CCC(C(=O)OC)C(=O)OC)ccc31)[C@H](C(=O)Nc1nc3ccccc3s1)[C@H]1C(=O)O[C@H](c3ccccc3)[C@H](c3ccccc3)N1[C@@H]2c1ccc(OCCO)cc1
bin 3
4) CC(C)C[C@H]1NC(=O)C([C@@H](C)OCc2ccccc2)NC(=O)[C@@]23C(=O)N[C@@H](Cc4ccccc4)C2[C@H](C)[C@@]2(C)O[C@H]2C3/C=C/C/C=C\CNC1=O (stereo not given in full)
bin 2
5) CC(C)(C)N1CC=CC23O[C@@H]4C=CCCOC(=O)C4[C@H]2C(=O)N(CCCCCCO)[C@@H]3C1=O (stereo not given in full)
bin 3
6) CCOC(=O)C1=C[C@@H](C(C)(C)C)N(S(=O)(=O)c2ccc(C)cc2)[C@H]1c1ccc(C#N)cc1
bin 3
7) O=C(NCCN1CCOCC1)[C@@H]1c2ccccc2C(=O)N(Cc2ccc(OC(F)(F)F)cc2)[C@H]1c1ccc(CO)cc1
bin 1
8) O=C(NC1CC1)[C@@H]1c2ccccc2C(=O)N(Cc2cc(C(F)(F)F)cc(C(F)(F)F)c2)[C@H]1c1ccc(CO)cc1
bin 1
9) CN(C)C(=O)[C@]1(Cc2ccccc2)N=C(c2ccc(OCCCO)cc2)O[C@@H]1c1ccccc1CN=[N+]=[N-]
bin 3

Input line: Classify this compound: "COCCCN1C(=O)[C@@]2(c3ccc([N+](=O)[O-])cc3)CC(=O)N(CC34CC5CC(CC(C5)C3)C4)[C@@H]2c2ccc(CO)cc21"
Output line: bin 1

###

assayed system: Follistatin (Homo sapiens) (UniProt P19883)
Sequence (P19883 whole entry, looked up): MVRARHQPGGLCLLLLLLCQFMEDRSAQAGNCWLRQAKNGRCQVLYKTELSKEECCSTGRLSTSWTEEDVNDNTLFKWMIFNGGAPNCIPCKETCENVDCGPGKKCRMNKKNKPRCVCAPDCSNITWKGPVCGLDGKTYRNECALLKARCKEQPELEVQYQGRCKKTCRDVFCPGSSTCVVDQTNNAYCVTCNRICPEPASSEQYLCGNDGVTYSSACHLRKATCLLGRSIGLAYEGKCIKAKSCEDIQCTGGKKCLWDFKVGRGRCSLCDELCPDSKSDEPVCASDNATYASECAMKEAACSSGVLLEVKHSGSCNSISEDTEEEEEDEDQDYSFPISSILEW
experimental details: FST protein binding to printed compounds – biochemical, small-molecule microarray, 635/667 nm fluorescence, primary screen (AID 1132)
condition notes: 635 nm fluorescence, higher = more signal
Threshold rule: composite z-score greater than or equal to 1 is 1; below that, 0.

1. C=CC[C@@]1(C(=O)OC)N=C(c2ccc(OCCCO)cc2)O[C@@H]1c1ccccc1N=[N+]=[N-]
1
2. CC(C)=CCCC(C)=CC(O)C1C=CC2C(=O)NC(=O)C2N1Nc1ccccn1 (stereo not drawn)
1
3. O=C1O[C@H](c2ccccc2)[C@H](c2ccccc2)N2[C@H]1[C@@H](C(=O)N1CCN(c3ncccn3)CC1)[C@]1(C(=O)Nc3ccc(C#CCCO)cc31)[C@H]2c1ccc(O)cc1
0
4. C=CCC(OC(C)=O)[C@@H]1[C@@H](N(Cc2cccc3ccccc23)C(=O)Cc2ccc(OC)cc2)c2cc(OCCCO)ccc2N1C(=O)Cc1ccc2ccccc2c1 (stereo partly drawn)
0
5. C=C(C)[C@@H]1CC=C(C(O)C2C=CC3C(=O)N(c4ccccc4)C(=O)C3N2Nc2ccc([N+](=O)[O-])cc2)CC1 (stereo partly drawn)
1

Input line: Quick check: does "CN(C)CCCCNC(=O)[C@H]1C[C@H]2C(=O)N3CCC[C@H]3C(=O)N2[C@H]1c1cccc(OCCO)c1" have composite z-score greater than or equal to 1?
Output line: 1

Input line: Quick check: does "COCCOC(=O)N1C(=O)[C@@]2(c3cc(C#Cc4ccc(OC)cc4)ccc31)[C@H](c1ccc(OCCO)cc1)N1[C@H](c3ccccc3)[C@H](c3ccccc3)OC(=O)[C@H]1[C@@H]2C(=O)NC[C@H](O)c1ccccc1" have composite z-score greater than or equal to 1?
Output line: 1

Input line: Quick check: does "CC(C)NC(=O)[C@@]1(C)c2ccccc2C(=O)N(Cc2ccccc2)[C@H]1c1ccc(CO)cc1" have composite z-score greater than or equal to 1?
Output line: 0

Input line: Quick check: does "COCCCNC(=O)[C@@]1(CCS(=O)(=O)c2ccccc2)COC(c2ccc(OCCCO)cc2)=N1" have composite z-score greater than or equal to 1?
Output line: 1

###

Quick list: composite z-score per entry.
experimental details: small molecules captured by biotinylated probe aFGF2 – biochemical, small-molecule microarray, fluorescence 635/667, stem cell growth factor project, primary screen (AID 1067);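 also: measures binding of biotinylated aFGF2 protein to printed compounds on slides; z-score merges feature fluorescence and signal-to-noise across triplicate slides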
condition notes: higher = more signal
The response must contain the number and no unit.

1) COc1cc(C(O)C2C=CC3C(=O)N(c4ccccc4)C(=O)C3N2Nc2ccccc2F)cc(OC)c1OC (stereo unspecified)
0.0253

Input line: Report composite z-score, nothing else, for this compound: "O=C1O[C@@H](c2ccccc2)[C@@H](c2ccccc2)N2[C@@H](c3ccc(OCCO)cc3)[C@]3(C(=O)Nc4ccc(C#CC5(O)CCCCCC5)cc43)[C@@H](C(=O)O)[C@H]12"
Output line: -0.0579

Input line: Report composite z-score, nothing else, for this compound: "C=CC[C@@]1(C(=O)N(C)C)N=C(c2ccc(OCCCO)cc2)O[C@@H]1c1ccccc1CN=[N+]=[N-]"
Output line: -0.0004

Input line: Report composite z-score, nothing else, for this compound: "CC(C)N1C(=O)c2ccccc2[C@@H](C(=O)NCC(F)(F)F)[C@@H]1c1ccc(CO)cc1"
Output line: -0.133

Input line: Report composite z-score, nothing else, for this compound: NC(=O)N1C(=O)C2C(C1=O)C1C=C(CCCO)C2C(C2CC2)N1Cc1sc2ccccc2c1Cl (stereo unspecified)
Output line: 0.0397

Input line: Report composite z-score, nothing else, for this compound: "O=C1C[C@@](C(=O)NC2CC2)(c2ccc([N+](=O)[O-])cc2)[C@@H](c2ccc(CO)cc2)N1C1CCCCC1"
Output line: 0.0626

###

experimental details: probe aNog binding to arrayed compounds – biochemical, biotinylated probe, 635/667 nm fluorescence, primary screen (AID 1115);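 also: probe is biotinylated aNog protein used at 0.15 µg/mL for 1 h at 4 C; z-score combines 667 nm fluorescence of each spot with its signal to noise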
condition notes: small-molecule microarray, higher = more signal
Threshold rule: composite z-score greater than or equal to 0.8 is Met; below that, Not met.

1. CCCC=C(CCC)[C@@H](NC(=O)c1ccc(C(F)(F)F)cc1)c1ccc(C(F)(F)F)cc1
Met
2. C=CCN1C(=O)[C@]2(O[C@H](CCn3cc([C@H](O)c4ccccc4)nn3)[C@@H]([Si](C)(C)c3ccc(OC)cc3)[C@@H]2C)c2cc(NC(=O)c3ccc(OC)cc3)ccc21
Not met
3. CN(C)CCCC[C@@H]1NC(=O)[C@H]2C[C@@H](C(=O)O)[C@@H](c3ccc(O)cc3)N2C1=O
Met
4. CC(C)C(CO)N1C(=O)[C@@H]2C3C(=O)OCCC/C=C\[C@H]3OC23C=CCN(Cc2ccccc2)C(=O)[C@@H]13 (stereo not given in full)
Not met
5. COC(=O)[C@@]1(Cc2ccc(F)cc2)[C@H]2c3cc(C(=O)N4CCCC4)n(CCc4ccccn4)c3C[C@H]2CN1C(=O)c1ccccc1
Met
6. COc1ccc(C(O)C2C=CC3C(=O)N(C)C(=O)C3N2N(c2ccccc2)c2ccccc2)cc1 (stereo not given)
Met
7. CC(C)(C)OC(=O)CC[C@]1(C(=O)NCC(O)CO)N=C(c2ccc(OCCCO)cc2)O[C@H]1c1ccccc1N=[N+]=[N-] (stereo not given in full)
Met
8. O=C1NC(=O)C2C1C=CC(C(O)c1ccc([N+](=O)[O-])cc1)N2Nc1ccccn1 (stereo not given)
Not met

Input line: Quick check: does C=CCC(OC(C)=O)[C@@H]1[C@@H](N(Cc2cc3ccccc3o2)C(=O)Cc2ccc(OC)cc2)c2cc(OCCCO)ccc2N1C(=O)c1ccc2ccccc2n1 (stereo not given in full) have composite z-score greater than or equal to 0.8?
Output line: Not met

Input line: Quick check: does "O=C1N(Cc2ccccc2)c2ccccc2C[C@@]12COC(c1ccc(OCCCO)cc1)=N2" have composite z-score greater than or equal to 0.8?
Output line: Met

Input line: Quick check: does "CCCCCCc1nc(-c2ccc(-c3ccc(Cl)c(Cl)c3)o2)cc2c1[Si](C(C)C)(C(C)C)OC2" have composite z-score greater than or equal to 0.8?
Output line: Not met
